Please respond with reported pIC50 for every item in the list.
- tested_on: Androgen receptor (Rattus norvegicus)
- Sequence (P15207 whole entry): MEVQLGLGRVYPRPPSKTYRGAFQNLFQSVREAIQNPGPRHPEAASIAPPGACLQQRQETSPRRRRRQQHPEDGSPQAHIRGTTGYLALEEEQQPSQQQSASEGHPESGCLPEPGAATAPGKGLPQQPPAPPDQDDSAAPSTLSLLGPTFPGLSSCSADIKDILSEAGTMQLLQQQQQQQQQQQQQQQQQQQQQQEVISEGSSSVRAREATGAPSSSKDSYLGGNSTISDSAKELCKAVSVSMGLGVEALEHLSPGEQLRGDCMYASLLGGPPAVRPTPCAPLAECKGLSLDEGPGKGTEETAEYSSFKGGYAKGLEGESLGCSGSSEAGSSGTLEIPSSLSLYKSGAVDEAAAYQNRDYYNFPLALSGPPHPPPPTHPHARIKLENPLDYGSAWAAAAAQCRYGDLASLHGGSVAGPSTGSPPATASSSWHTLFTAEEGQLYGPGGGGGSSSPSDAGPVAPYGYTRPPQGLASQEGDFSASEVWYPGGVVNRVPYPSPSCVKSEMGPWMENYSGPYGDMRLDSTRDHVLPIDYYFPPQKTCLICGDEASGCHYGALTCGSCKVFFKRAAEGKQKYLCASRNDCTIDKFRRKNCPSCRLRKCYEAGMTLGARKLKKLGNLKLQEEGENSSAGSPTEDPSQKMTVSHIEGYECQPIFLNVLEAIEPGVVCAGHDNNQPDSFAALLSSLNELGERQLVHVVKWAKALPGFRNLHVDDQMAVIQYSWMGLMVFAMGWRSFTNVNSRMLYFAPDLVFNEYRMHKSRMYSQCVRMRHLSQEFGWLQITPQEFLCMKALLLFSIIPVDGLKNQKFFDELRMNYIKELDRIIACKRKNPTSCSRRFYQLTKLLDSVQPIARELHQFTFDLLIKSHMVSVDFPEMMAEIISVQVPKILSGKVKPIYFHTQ
- assay_text: Displacement of fluormone-AL Green from His-tagged/GST-fused recombinant rat androgen receptor LBD expressed in insect cells measured after 4 hrs by fluorescence polarization assay
Numbers only, as −log10 of the molar value.

Completed entries (count: 2):
# molecule_smiles, pIC50
records = [
    ("COc1ccccc1N1CCN(c2cc(=O)oc3c2ccc2ccccc23)CC1", 5.90),
    ("O=c1cc(N2CCN(Cc3ccccc3)CC2)c2ccc3ccccc3c2o1", 6.26),
]

Parameters: items (list). Returns: pIC50 for each item.
1. O=c1cc(N2CCN(c3ccccc3C(F)(F)F)CC2)c2ccc3ccccc3c2o1
2. O=c1cc(N2CCN(c3ccccc3F)CC2)c2ccc3ccccc3c2o1
3. O=c1cc(N2CCN(C(c3ccc(F)cc3)c3ccc(F)cc3)CC2)c2ccc3ccccc3c2o1
4. O=c1cc(N2CCN(c3ccccc3)CC2)c2ccc3ccccc3c2o1
5. Cc1ccc(N2CCN(c3cc(=O)oc4c3ccc3ccccc34)CC2)cc1
6. COc1ccc(N2CCN(c3cc(=O)oc4c3ccc3ccccc34)CC2)cc1
7. CCOc1ccccc1N1CCN(c2cc(=O)oc3c2ccc2ccccc23)CC1
8. Cc1ccccc1N1CCN(c2cc(=O)oc3c2ccc2ccccc23)CC1

Result:
1: 5.98; 2: 5.43; 3: 6.07; 4: 5.40; 5: 5.52; 6: 5.81; 7: 5.68; 8: 5.45

// for each compound below, give its pIC50
1. O=c1cc(N2CCN(c3ccccn3)CC2)c2ccc3ccccc3c2o1
2. O=c1cc(N2CCN(c3ccc(Cl)cc3)CC2)c2ccc3ccccc3c2o1
3. O=c1cc(N2CCN(c3ccccc3Cl)CC2)c2ccc3ccccc3c2o1

Result:
5.66
5.59
5.41
